Below are compounds with their pIC50 as measured on human lung cancer strain NCI-H441.
Where a SMILES comes first, the peptide text is derived from it. Bridges are numbered along the chain shown (N, C = ends). [ ]: non-standard residue; d: D form. The star is where a group is joined. hPhe(3-Cl-4-CF3) = N[C@@H](CCc1ccc(C(F)(F)F)c(Cl)c1)C(=O)O; NPrPhe(4-CF3) = CCCN[C@@H](Cc1ccc(C(F)(F)F)cc1)C(=O)O; NMeGly(cPent) = CN[C@H](C(=O)O)C1CCCC1; NMeD = CN[C@@H](CC(=O)O)C(=O)O; NMeL = CN[C@@H](CC(C)C)C(=O)O; Morpholide = C1CN(*)CCO1; Ac5c = NC1(C(=O)O)CCCC1; Sar = CNCC(=O)O
// pIC50 is dimensionless: -log10 of concentration (M)

Record excerpt, results attached:
>>> reported_measurement("CCCN1C(=O)CN(C)C(=O)CN(C)C(=O)[C@H]([C@@H](C)CC)NC(=O)[C@H](CC(C)C)N(C)C(=O)C[C@@H](C(=O)N2CCOCC2)N(C)C(=O)[C@H](C2CCCC2)N(C)C(=O)C2(CCCC2)NC(=O)CN(C)C(=O)[C@H](CCc2ccc(C(F)(F)F)c(Cl)c2)NC(=O)CN(C)C(=O)[C@@H]1Cc1ccc(C(F)(F)F)cc1 [PP0266] ([NMeL]I[Sar][Sar][NPrPhe(4-CF3)][Sar][hPhe(3-Cl-4-CF3)][Sar][Ac5c][NMeGly(cPent)][NMeD]-Morpholide; lactam N-11)")
7.82
>>> reported_measurement("CCO[C@@H]1C[C@H]2C(=O)NC3(CCC3)C(=O)N(C)[C@@H](C(CC)CC)C(=O)N(C)[C@H](C(=O)N(C)C)CC(=O)N(C)[C@@H](CC3CCCC3)C(=O)N[C@@H]([C@@H](C)CC)C(=O)N(C)CC(=O)N(C)[C@H]3C/C=C\\CCN(C3=O)[C@@H](Cc3ccc(C(F)(F)F)cc3)C(=O)N(C)CC(=O)N[C@@H](CCc3ccc(Cl)c(Cl)c3)C(=O)N2C1")
7.65
>>> reported_measurement("CCC[C@H]1C(=O)N[C@@H]([C@@H](C)CC)C(=O)N2C[C@@H](OC)C[C@H]2C(=O)N(C)[C@H]2C/C=C\\CCN(C2=O)[C@@H](Cc2ccc(C)cc2)C(=O)N(C)CC(=O)N[C@@H](CCc2ccc(C(F)(F)F)c(OC)c2)C(=O)N2C[C@@H](C)C[C@H]2C(=O)NC2(CC(C)(C)C2)C(=O)N(C)[C@@H](C2CCCC2)C(=O)N(C)[C@H](C(=O)N(C)C)CC(=O)N1C")
7.64
>>> reported_measurement("CCO[C@@H]1C[C@H]2C(=O)NC3(CCC3)C(=O)N(C)[C@@H](C3CCCC3)C(=O)N(C)[C@H](C(=O)N3CCOCC3)CC(=O)N(C)[C@@H](CC3CC3)C(=O)N[C@@H]([C@@H](C)CC)C(=O)N(C)CC(=O)N(C)[C@H]3C/C=C\\CCN(C3=O)[C@@H](Cc3ccc(C(F)(F)F)cc3)C(=O)N(C)CC(=O)N[C@@H](CCc3cc(F)c(C(F)(F)F)c(F)c3)C(=O)N2C1")
7.37

Next up:
Given the entry CCO[C@@H]1C[C@H]2C(=O)NC3(CCC3)C(=O)N(C)[C@@H](C3CCCC3)C(=O)N(C)[C@H](C(=O)N(C)C)CC(=O)N(C)[C@@H](C)C(=O)N[C@@H]([C@@H](C)CC)C(=O)N(C)CC(=O)N(C)[C@H]3CCCCCN(C3=O)[C@@H](Cc3ccc(F)cc3)C(=O)N(C)CC(=O)N[C@@H](CCc3cc(F)c(C(F)(F)F)c(F)c3)C(=O)N2C1 , report its measured pIC50.
7.79
